Here, each record is paired with measured TGI data.
# Tested on: CAKI-1 renal
# experiment_description: NCI tumour cell line growth inhibition, 48 h
Just the number in µM, nothing appended.

As a guide, the following entries are already answered.
>>> print(df.to_string())
                                   molecule  observed_property  measure_unit  result
0  O=S(=O)(NC1=NCCN1C(=S)SN1CCn2c1nsc2=S)c1cccc(OC(F)(F)F)c1                TGI            µM    43.5
1  O=NN(CCCl)C(=O)NC1CCC(=O)NC1=O (stereo not given)                TGI            µM     659
2  C/C(=C\Cc1cc(O)ccc1O)CCc1c(C)c(O)c(O)c(C=O)c1C                TGI            µM    85.6

Now consider the entry below.
Asked: For `O=[N+]([O-])c1ccc2c(Nc3ccccc3-c3ccccc3Nc3c4ccccc4nc4cc([N+](=O)[O-])ccc34)c3ccccc3nc2c1` , what is its reported TGI?
Given back: 50.6
